# Target: cyno MSLN (Macaca fascicularis)
# Experimental Details: BLI (Octet), bsAb in 1+1 Fab-scFv-Fc format
Recorded Endpoint: Kd (nM)
Give bare numbers, in nM.

// each binder listed below needs its Kd
1. XENP32560 (bispecific antibody, part only; not given: anti-CD3 scFv-Fc arm, constant regions, V domains shown, not shown: another chain or arm of the molecule; a dimerising Fc or GST; small tags and cut ends) VH: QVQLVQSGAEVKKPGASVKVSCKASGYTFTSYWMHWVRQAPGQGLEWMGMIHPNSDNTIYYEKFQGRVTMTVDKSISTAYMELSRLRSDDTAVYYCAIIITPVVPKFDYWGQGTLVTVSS VL: DIVMTQSPDSLAVSLGERATINCKASQDVGTSVAWYQQKPGQSPKLLIYWASTRHTGVPDRFTGSGSGTDFTLTISSLQAEDVAVYFCQQYSSYPLTFGAGTKLEIK
2. XENP32556 (bispecific antibody, part only; not given: anti-CD3 scFv-Fc arm, constant regions, V domains shown, not shown: another chain or arm of the molecule; a dimerising Fc or GST; small tags and cut ends) VH: QVQLVQSGAEVKKPGASVKVSCKASGYTFTSYWMHWVRQAPGQGLEWMGMIHPNSDNTIYYEKFQGRVTMTVDKSISTAYMELSRLRSDDTAVYYCARIITPVVPKFDYWGQGTLVTVSS VL: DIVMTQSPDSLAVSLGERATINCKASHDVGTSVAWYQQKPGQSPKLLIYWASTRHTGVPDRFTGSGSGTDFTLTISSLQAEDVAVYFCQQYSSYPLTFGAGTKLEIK
3. XENP32569 (bispecific antibody, part only; not given: anti-CD3 scFv-Fc arm, constant regions, V domains shown, not shown: another chain or arm of the molecule; a dimerising Fc or GST; small tags and cut ends) VH: QVQLVQSGAEVKKPGASVKVSCKASGYTFTSYWMHWVRQAPGQGLEWMGMIHPQSDNTIYYEKFQGRVTMTVDKSISTAYMELSRLRSDDTAVYYCAIIITPVVPKFDYWGQGTLVTVSS VL: DIVMTQSPDSLAVSLGERATINCKASHSVGTSVAWYQQKPGQSPKLLIYWASTRHTGVPDRFTGSGSGTDFTLTISSLQAEDVAVYFCQQYSSYPLTFGAGTKLEIK
4. XENP32557 (bispecific antibody, part only; not given: anti-CD3 scFv-Fc arm, constant regions, V domains shown, not shown: another chain or arm of the molecule; a dimerising Fc or GST; small tags and cut ends) VH: QVQLVQSGAEVKKPGASVKVSCKASGYTFTSYWMHWVRQAPGQGLEWMGMIHPNSDNTIYYEKFQGRVTMTVDKSISTAYMELSRLRSDDTAVYYCAIIISPVVPKFDYWGQGTLVTVSS VL: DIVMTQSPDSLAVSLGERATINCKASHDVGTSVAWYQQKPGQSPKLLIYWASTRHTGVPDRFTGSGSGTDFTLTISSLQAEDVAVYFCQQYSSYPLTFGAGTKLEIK
5. XENP31701 (bispecific antibody, part only; not given: anti-CD3 scFv-Fc arm, constant regions, V domains shown, not shown: another chain or arm of the molecule; a dimerising Fc or GST; small tags and cut ends) VH: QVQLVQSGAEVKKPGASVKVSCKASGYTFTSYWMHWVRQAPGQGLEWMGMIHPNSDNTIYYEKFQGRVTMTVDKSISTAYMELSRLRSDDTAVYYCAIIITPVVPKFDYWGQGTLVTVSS VL: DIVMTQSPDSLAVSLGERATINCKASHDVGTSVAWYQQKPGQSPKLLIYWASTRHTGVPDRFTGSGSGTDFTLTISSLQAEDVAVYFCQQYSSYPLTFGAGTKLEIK

Result string:
1: 1.2; 2: 0.395; 3: 0.189; 4: 0.62; 5: 0.0938

Where do the numbers come from? From patent US20230340128A1.
